- TESTED TARGET: FGF14 (Homo sapiens)
- Sequence (Q92915 64-252 isoform Q92915-2): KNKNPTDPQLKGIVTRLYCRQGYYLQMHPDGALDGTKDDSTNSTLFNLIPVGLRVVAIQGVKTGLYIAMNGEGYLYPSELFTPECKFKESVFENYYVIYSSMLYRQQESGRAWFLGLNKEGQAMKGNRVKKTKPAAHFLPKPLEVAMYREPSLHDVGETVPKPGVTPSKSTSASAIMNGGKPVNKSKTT
- PROCEDURE TEXT: Surface plasmon resonance
- Assay type: binding
- TEST CONTEXT: read-out: kon FGF14
Residues, ends and D or L forms follow the SMILES beside them. *: point of attachment. Adamantane1carbonyl = O=C(C12CC3CC(CC(C3)C1)C2)*; OtBu = CC(C)(C)O*; OPr = CCCO*; X1 = C#CCO*
Exercise: for every item that follows, state its recorded kon.
Put down the number, then write its unit next to it.

# COMPOUND, MEAS VALUE
measured = [
    ("CCCOC(=O)[C@@H](NC(=O)[C@H](CCC(=O)OC(C)(C)C)NC(=O)[C@H](CC(C)C)NC(=O)[C@@H]1CCCN1C(=O)C12CC3CC(CC(C3)C1)C2)C(C)C [Compound 23g] (Adamantane1carbonyl-PLE(OtBu)V-OPr)", "289 M⁻¹ s⁻¹"),
    ("CC(C)C[C@H](NC(=O)[C@@H]1CCCN1C(=O)C12CC3CC(CC(C3)C1)C2)C(=O)N[C@@H](CCC(=O)OC(C)(C)C)C(=O)N[C@H](C(=O)OC(C)(C)C)C(C)C [Compound 23d] (Adamantane1carbonyl-PLE(OtBu)V-OtBu)", "1620 M⁻¹ s⁻¹"),
    ("COC(=O)[C@@H](NC(=O)[C@H](CCC(=O)OC(C)(C)C)NC(=O)[C@H](CC(C)C)NC(=O)[C@@H]1CCCN1C(=O)C12CC3CC(CC(C3)C1)C2)C(C)C [Compound 21a] (Adamantane1carbonyl-PLE(OtBu)V-OMe)", "4660 M⁻¹ s⁻¹"),
]

Give its kon value. Item: C#CCOC(=O)[C@@H](NC(=O)[C@H](CCC(=O)OC(C)(C)C)NC(=O)[C@H](CC(C)C)NC(=O)[C@@H]1CCCN1C(=O)C12CC3CC(CC(C3)C1)C2)C(C)C [Compound 23b] (Adamantane1carbonyl-PLE(OtBu)V-X1)
25800 M⁻¹ s⁻¹
